Reported GI50 values are given for each entry in this list.
- System: MDA-MB-231 breast
- procedure_details: NCI tumour cell line growth inhibition, 48 h
experimental_endpoint: GI50

| compound | assay_result |
| --- | --- |
| CCCCCSC1C2C(=O)C(Br)=CC13CCNc1c(O)c4c5c(c13)=[N+]2CCC=5C=N4 (centres undefined) | 417 nM |
| O=C(c1ccccc1)c1nn(-c2ccccc2)c2nc3nc(-c4ccccc4)cc(=O)n3nc12 | 26200 nM |
| COc1cc(NC(C)CCCN)c2ncccc2c1Sc1ccc(Cl)cc1 (centres undefined) | 1420 nM |
| COc1ccc(C(=O)OC2C(OC3C(O)COC(O[C@H]4C[C@H]5[C@@H]6CC=C7C[C@@H](O)CC[C@]7(C)[C@H]6CC[C@]5(C)[C@H]4[C@H](C)C(=O)CCC(C)C)C3OC(C)=O)OCC(O)C2O)cc1 (some centres undefined) | 31.3 nM |
| O=C(COc1ccc(-c2nc3cc(Cl)c(Cl)cc3[nH]2)cc1)N=Nc1c(O)[nH]c2ccccc12 | 1090 nM |
| O=Nc1c(O)c2ccccc2c2ccccc12 | 849 nM |
| CCN(CC)CCCNc1[nH]ncc2c(C)c3nc4ccccc4c3cc12 | 709 nM |
| Cc1cn2c(/C=N/N=C(N)N)c(-c3ccsc3)nc2s1 | 3940 nM |
| CN(C)CCOc1ccc(-c2cc(-c3ccc4c(c3)CC/C4=N\O)c(-c3ccncc3)o2)cc1 | 3340 nM |
| COC(=O)[C@@H](OC)[C@@H]1Cc2cc3cc(OC4CC(OC5CC(O)C(O)C(C)O5)C(O)C(C)O4)c(C)c(O)c3c(O)c2C(=O)[C@H]1OC1CC(OC2CC(OC3CC(C)(O)C(O)C(C)O3)C(O)C(C)O2)C(O)C(C)O1 (some centres undefined) | 47.9 nM |
| COc1cc(C2C3=C(COC3=O)Nc3cc4c(cc32)OCO4)cc2c1OCO2 (centres undefined) | 128 nM |
| CC(=O)c1ccc2c(c1)N(CCCN(C)C)c1ccccc1S2 | 11100 nM |
| Cc1cc(S(N)(=O)=O)c(S/C(=N\Nc2ccc([N+](=O)[O-])cc2)c2ccc3ccccc3c2)cc1Cl | 13400 nM |
| CN1CCN(c2ccc(C(=O)Nc3cccc(C#Cc4cccc5[nH]nc(N)c45)c3)cc2C(F)(F)F)CC1 | 568 nM |
